tested on: MS2 coat protein; experiment: apparent Kd, MS2 coat protein; higher = weaker binding; RNA-MaP array; details: designed as: OFF switch for flavin mononucleotide; no ligand
Consider the following sequences; for each one, report its apparent Kd.

Return reported apparent Kd values for all items listed beneath this line.
1. GUGAUGCCUUACACAUGAGGAUCACCCAUGUGGUGUAAGCGUAGAAGGUGAAUAUAUUCCAUAGUCAAGGAUAUACGAACAAUC
2. GAAAUACAUGAGGAUCACCCAUGUCAGGAUAUCGGUGAGAAAGAGCAUCUCUGCGGCCCGAGAAGGGACACAGG
3. ACUUACGGAAAGAAGGAGGGACAGUCACGGCGGGCGGACCACAUGAGGAUCACCCAUGUGCGAGCCUAGGAUAUUUAGGGUAGC

Outgoing:
1: 12.2 nM; 2: 64.5 nM; 3: 7.19 nM

====

tested on: MS2 coat protein; experiment: apparent Kd, MS2 coat protein; higher = weaker binding; RNA-MaP array; tryptophan 2.4 mM where present; details: designed as: OFF switch for tryptophan; no ligand
For each record, write down the corresponding apparent Kd.
Give bare numbers, in nM.

Incoming: Could you tell me which apparent Kd is on file for "UAAUCAGUGCCGGUUCUCGGAUCCUCAUGUCGAGGACCGGUACGGCCGCCACUCGGAACAUGAGGAUCACCCAUGUAAUAAUAAU" ?
Outgoing: 97.3

Incoming: Can you look up the measured apparent Kd of "AUUGUCGUGUCGGCCGCCACUGUCAUGGUUUUCGUGGAAAACAUGAGGAUCACCCAUGUAAUUGACAGGACCGGGACAUGGCGGC" for me?
Outgoing: 9.29

Incoming: Could you tell me which apparent Kd is on file for "UUCGUAUUGUCGGCCGCCACUGCAACAUGAGGAUCACCCAUGUAAGAAUGGUUGUAAAUAUAUUACAGGACCGGGACAAUAGUAA" ?
Outgoing: 17.6

Incoming: Find the recorded apparent Kd belonging to "AGCGUGCAUAGGAAAACUAUGUACGCAAAUCGAGGACCGGUACGGCCGCCACUCGUCCUCAACAUGAGGAUCACCCAUGUAAUAA" and report it.
Outgoing: 19.9

Here's the next entry for you.
Incoming: What measured apparent Kd goes with "GUUGUAUACUCGGCCGCCACUGAGAGAGUCAUGUAAACAUGAGGAUCACCCAUGUAAUAUAUAUACAGGACCGGGAGUAUGGUAA" ?
Outgoing: 15

====

test system: MS2 coat protein; experiment: apparent Kd, MS2 coat protein; higher = weaker binding; RNA-MaP array; settings: ligand present: flavin mononucleotide; designed as: ON switch for flavin mononucleotide
property-measured: apparent Kd (nM)
Numbers only, in nM.

In the examples that follow, each entry is paired with its recorded apparent Kd.
Incoming: # query: apparent Kd of entry "AUGAAAAGUACAGGAUAUAUAUAAACACAAAACGGACAUGAGGAUCACCCAUGUUGACGUUGUCAAUAGAAGGGUACCAACACA"
Outgoing: 10.7

Incoming: Could you share which apparent Kd value was measured for "UAACAUGAGGAUCACCCAUGUAACCAUCUCCAAGUCGGUAGGCAGGAUAUGUACAUAAUGGAAGAACAGAAGGGCCGGUCCGAG" ?
Outgoing: 9.9

Consider the following items and state reported apparent Kd for each.
1. UCGAGUGGGCAGAAGGUGUCGGACUAUACAUGAGGAUCACCCAUGUGGAAACCUCCCGGUUUGAACAAGGAUAUGCCUCGUAAA
2. ACCUAUACUCCAGGAUAUCAAGACCGAUGACAUGAGGAUCACCCAUGUCAAUCAAAACCAUGACGUGAGAAGGGGAGGCUCGUC

Outgoing:
[71.4, 6.05]

Taken from the EternaBench riboswitch data.
